ASSAY REMARKS: Pharmacokinetic analysis in ICR mice
Type: in vivo, mouse
RECORDED CONDITIONS: male, mouse, plasma; ICR mice, 25 mg/kg oral, blood collection 0.083–4 h
MEASURED METRIC: AUC(0-inf) (ng·h/mL)

1. Cc1ccccc1CN1C(=O)C2=C(CCN(Cc3ccccc3)C2)N2CCN=C12 [ONC201, reference compound] :: 145

* * *

ASSAY REMARKS: Pharmacokinetic analysis in ICR mice
Format: in vivo, mouse
RECORDED CONDITIONS: male, mouse, plasma; ICR mice, 10 mg/kg oral
Reported values of AUC(0-inf) for individual entries
MEASURED METRIC: AUC(0-inf)

1. N#Cc1cccc(CN2CCc3ncn(Cc4ccc(Cl)cc4)c(=O)c3C2)c1 :: 2360 ng·h/mL
2. O=C1C2=C(CCN(Cc3ccccc3)C2)N2CCN=C2N1Cc1ccc(C(F)(F)F)cc1 [ONC212/TR‐31, reference compound] :: 449 ng·h/mL
3. N#Cc1cccc(CN2CCC3=C(C2)C(=O)N(Cc2ccc(Cl)cc2)C2=NCCN23)c1 :: 584 ng·h/mL
4. Cn1c2c(c(=O)n(Cc3ccc(Cl)cc3)c1=O)CN(Cc1cccc(C#N)c1)CC2 :: 2710 ng·h/mL

* * *

ASSAY REMARKS: Pharmacokinetic analysis in ICR mice
Format: in vivo, mouse
RECORDED CONDITIONS: male, mouse, in vivo; ICR mice, 25 mg/kg oral, blood collection 0.083–4 h; read-out: C max (mg/ml)
MEASURED METRIC: Cmax (mg/mL)

1) Cc1ccccc1CN1C(=O)C2=C(CCN(Cc3ccccc3)C2)N2CCN=C12 [ONC201, reference compound] :: 0.000195

* * *

ASSAY REMARKS: Pharmacokinetic analysis in ICR mice
Format: in vivo, mouse
RECORDED CONDITIONS: male, mouse, plasma; ICR mice, i.v. 2 mg/kg and oral 10 mg/kg arms; read-out: t 1/2 (range over study arms)
MEASURED METRIC: half-life

1. Cc1ccccc1CN1C(=O)C2=C(CCN(Cc3ccccc3)C2)N2CCN=C12 [ONC201, reference compound] :: 15.6 to 18.6 min

* * *

Reported values of half-life for individual entries
ASSAY REMARKS: Pharmacokinetic analysis in ICR mice
Format: in vivo, mouse
RECORDED CONDITIONS: male, mouse, plasma, iv; ICR mice, 2.0 mg/kg i.v.; read-out: T 1/2 (converted)
MEASURED METRIC: half-life (h)

1. N#Cc1cccc(CN2CCC3=C(C2)C(=O)N(Cc2ccc(Cl)cc2)C2=NCCN23)c1 [TR‐65] :: 0.73
2. Cn1c2c(c(=O)n(Cc3ccc(Cl)cc3)c1=O)CN(Cc1cccc(C#N)c1)CC2 [TR‐57] :: 1.52
3. C#Cc1cccc(CN2CCC3=C(C2)C(=O)N(Cc2ccc(Cl)cc2)C2=NCCN23)c1 [TR‐27] :: 1.06
4. Cc1ccccc1CN1C(=O)C2=C(CCN(Cc3ccccc3)C2)N2CCN=C12 [ONC201, reference compound] :: 0.26
5. O=C1C2=C(CCN(Cc3ccccc3)C2)N2CCN=C2N1Cc1ccc(C(F)(F)F)cc1 [ONC212/TR‐31, reference compound] :: 1.68

* * *

ASSAY REMARKS: Pharmacokinetic analysis in ICR mice
Type: in vivo, mouse
RECORDED CONDITIONS: male, mouse, plasma, iv; ICR mice, 2.0 mg/kg i.v.; read-out: C max
Reported values of Cmax for individual entries
MEASURED METRIC: Cmax (nM)

1. Cc1ccccc1CN1C(=O)C2=C(CCN(Cc3ccccc3)C2)N2CCN=C12 [ONC201, reference compound] :: 310
2. C#Cc1cccc(CN2CCC3=C(C2)C(=O)N(Cc2ccc(Cl)cc2)C2=NCCN23)c1 [TR‐27] :: 350
3. N#Cc1cccc(CN2CCC3=C(C2)C(=O)N(Cc2ccc(Cl)cc2)C2=NCCN23)c1 [TR‐65] :: 1500
4. Cn1c2c(c(=O)n(Cc3ccc(Cl)cc3)c1=O)CN(Cc1cccc(C#N)c1)CC2 [TR‐57] :: 3000
5. O=C1C2=C(CCN(Cc3ccccc3)C2)N2CCN=C2N1Cc1ccc(C(F)(F)F)cc1 [ONC212/TR‐31, reference compound] :: 2200

* * *

Reported values of Cmax for individual entries
ASSAY REMARKS: Pharmacokinetic analysis in ICR mice
Type: in vivo, mouse
RECORDED CONDITIONS: male, mouse, plasma; ICR mice, 10 mg/kg oral; read-out: C max
MEASURED METRIC: Cmax (nM)

1) N#Cc1cccc(CN2CCc3ncn(Cc4ccc(Cl)cc4)c(=O)c3C2)c1 :: 3700
2) Cc1ccccc1CN1C(=O)C2=C(CCN(Cc3ccccc3)C2)N2CCN=C12 [ONC201, reference compound] :: 23
3) Cn1c2c(c(=O)n(Cc3ccc(Cl)cc3)c1=O)CN(Cc1cccc(C#N)c1)CC2 :: 4100
4) N#Cc1cccc(CN2CCC3=C(C2)C(=O)N(Cc2ccc(Cl)cc2)C2=NCCN23)c1 :: 670
5) O=C1C2=C(CCN(Cc3ccccc3)C2)N2CCN=C2N1Cc1ccc(C(F)(F)F)cc1 [ONC212/TR‐31, reference compound] :: 640
6) C#Cc1cccc(CN2CCC3=C(C2)C(=O)N(Cc2ccc(Cl)cc2)C2=NCCN23)c1 :: 290
